test.system: Sho1, P40073
Sequence (P40073 287-367): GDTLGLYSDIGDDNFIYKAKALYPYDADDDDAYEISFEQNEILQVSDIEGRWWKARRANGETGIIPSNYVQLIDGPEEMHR
test.name: SPOT array
condition.label: median of control spots 1148
Doc: threshold 2 (exclusive). Items with SPOT intensity beneath it return condition met; others return condition not met.

- binder: "VNFRRIPTGPDSPPT"
  class.label: "condition not met"

query: # TODO verify SPOT intensity < 2 strictly for this binder: NAGIRPKFILALNDE
result: condition not met

query: SPOT intensity under 2? Item: SAPDIPPRSPNRNAH
result: condition met

query: Is 2 strictly greater than the binder's reported SPOT intensity? binder: AGKRRLPLVRFKASD
result: condition not met

query: A record lists IPSRPAPKPPSSASA . Is its SPOT intensity below 2?
result: condition met

query: Does this binder meet the criterion SPOT intensity < 2? RRLRDKYKLPIVDAD
result: condition not met
